# testName: clinical
# assaySetup: human, in vivo, po, 36 mg, t1/2
measuredAttribute: half-life (min)
Give bare numbers, in min.

Query block: Any idea what its half-life is? The molecule is CNCc1ccc(-c2[nH]c3cc(F)cc4c3c2CCNC4=O)cc1
Result block: 1080

* * *

# testName: Plasma pharmacokinetics of rucaparib (LC-MS/MS, noncompartmental)
# assaySetup: human, plasma, po, 360 mg, Cmax, single oral dose 360 mg, day –5; geometric mean (CV%)
measuredAttribute: Cmax (ng/mL)
Give bare numbers, in ng/mL.

Query block: I have this molecule here, CNCc1ccc(-c2[nH]c3cc(F)cc4c3c2CCNC4=O)cc1 , and I need its recorded Cmax.
Result block: 814

* * *

# testName: Plasma pharmacokinetics of rucaparib (LC-MS/MS, noncompartmental)
# assaySetup: human, plasma, po, 180 mg, tmax, single oral dose 180 mg, day 1; median (minimum, maximum)
measuredAttribute: Tmax (h)
One number for each entry, in h.

Query block: Request the reported Tmax associated with CNCc1ccc(-c2[nH]c3cc(F)cc4c3c2CCNC4=O)cc1
Result block: 6

* * *

# testName: Plasma pharmacokinetics of rucaparib (LC-MS/MS, noncompartmental)
# assaySetup: human, plasma, po, 180 mg, Cmax, single oral dose 180 mg, day –5; geometric mean (CV%)
measuredAttribute: Cmax (ng/mL)
Give bare numbers, in ng/mL.

Query block: Name the reported Cmax value associated with the molecule CNCc1ccc(-c2[nH]c3cc(F)cc4c3c2CCNC4=O)cc1
Result block: 410

* * *

# testName: Plasma pharmacokinetics of rucaparib (LC-MS/MS, noncompartmental)
# assaySetup: human, plasma, po, 240 mg, Cmax, oral 240 mg q.d. for 14 days; geometric mean (CV%)
measuredAttribute: Cmax (ng/mL)
One number for each entry, in ng/mL.

Query block: I have this molecule here, CNCc1ccc(-c2[nH]c3cc(F)cc4c3c2CCNC4=O)cc1 , and I need its recorded Cmax.
Result block: 527

* * *

# testName: Plasma pharmacokinetics of rucaparib (LC-MS/MS, noncompartmental)
# assaySetup: human, plasma, po, 240 mg, tmax, oral 240 mg q.d. for 14 days; median (minimum, maximum)
measuredAttribute: Tmax at 14 days (h)
Numbers only, in h.

Query block: Fill in the blank: the reported Tmax at 14 days of CNCc1ccc(-c2[nH]c3cc(F)cc4c3c2CCNC4=O)cc1 [rucaparib] is ____.
Result block: 4

* * *

# testName: Plasma pharmacokinetics of rucaparib (LC-MS/MS, noncompartmental)
# assaySetup: human, plasma, po, 12 mg, Cmax, single oral dose 12 mg, day –5; geometric mean (CV%)
measuredAttribute: Cmax (ng/mL)
Answers are plain numbers, in ng/mL.

Query block: Please look up its Cmax: CNCc1ccc(-c2[nH]c3cc(F)cc4c3c2CCNC4=O)cc1
Result block: 24

* * *

# testName: Plasma pharmacokinetics of rucaparib (LC-MS/MS, noncompartmental)
# assaySetup: human, plasma, iv, 18 mg
measuredAttribute: Vd (L)
Answers are plain numbers, in L.

Query block: Which measured Vd value corresponds to CNCc1ccc(-c2[nH]c3cc(F)cc4c3c2CCNC4=O)cc1 ?
Result block: 234

* * *

# testName: Plasma pharmacokinetics of rucaparib (LC-MS/MS, noncompartmental)
# assaySetup: human, plasma, iv, 24 mg, tmax, single i.v. dose 24 mg, day –10; median (minimum, maximum)
measuredAttribute: Tmax (min)
Give bare numbers, in min.

Query block: Find the recorded Tmax belonging to CNCc1ccc(-c2[nH]c3cc(F)cc4c3c2CCNC4=O)cc1 [rucaparib] and report it.
Result block: 30

* * *

# testName: Plasma pharmacokinetics of rucaparib (LC-MS/MS, noncompartmental)
# assaySetup: human, plasma, po, 72 mg
measuredAttribute: bioavailability (%)
Give bare numbers, in %.

Query block: Suppose we examine the compound CNCc1ccc(-c2[nH]c3cc(F)cc4c3c2CCNC4=O)cc1 [rucaparib] ; what bioavailability value has been reported?
Result block: 30.1

* * *

# testName: Plasma pharmacokinetics of rucaparib (LC-MS/MS, noncompartmental)
# assaySetup: human, plasma, po, 120 mg
measuredAttribute: bioavailability
Answers without a unit are incomplete; give the number and then its unit.

Query block: Tell me the measured bioavailability of CNCc1ccc(-c2[nH]c3cc(F)cc4c3c2CCNC4=O)cc1 , please.
Result block: 41.1%

* * *

# testName: Plasma pharmacokinetics of rucaparib (LC-MS/MS, noncompartmental)
# assaySetup: human, plasma, po, 240 mg, AUCinf, single oral dose 240 mg, day –5; geometric mean (CV%)
measuredAttribute: AUC(0-inf) (ng·h/mL)
One number for each entry, in ng·h/mL.

Query block: Which AUC(0-inf) is reported for this compound? CNCc1ccc(-c2[nH]c3cc(F)cc4c3c2CCNC4=O)cc1
Result block: 6990

* * *

# testName: Plasma pharmacokinetics of rucaparib (LC-MS/MS, noncompartmental)
# assaySetup: human, plasma, po, 80 mg, AUCinf, single oral dose 80 mg, day 1; geometric mean (CV%)
measuredAttribute: AUC(0-inf) (ng·h/mL)
Numbers only, in ng·h/mL.

Query block: Could you tell me which AUC(0-inf) is on file for CNCc1ccc(-c2[nH]c3cc(F)cc4c3c2CCNC4=O)cc1 ?
Result block: 1700

* * *

# testName: Plasma pharmacokinetics of rucaparib (LC-MS/MS, noncompartmental)
# assaySetup: human, plasma, iv, 12 mg, AUC0-24, single i.v. dose 12 mg, day –10; geometric mean (CV%)
measuredAttribute: AUC(0-t) (ng·h/mL)
Numbers only, in ng·h/mL.

Query block: Which AUC(0-t) reading was recorded for the compound CNCc1ccc(-c2[nH]c3cc(F)cc4c3c2CCNC4=O)cc1 [rucaparib] ?
Result block: 549

* * *

# testName: Plasma pharmacokinetics of rucaparib (LC-MS/MS, noncompartmental)
# assaySetup: human, plasma, po, 180 mg, AUC0-24, oral 180 mg q.d. for 14 days; geometric mean (CV%)
measuredAttribute: AUC(0-t)

Query block: Look at this compound and give its reported AUC(0-t). CNCc1ccc(-c2[nH]c3cc(F)cc4c3c2CCNC4=O)cc1 [rucaparib]
Result block: 7.66 µg·h/mL

* * *

# testName: Plasma pharmacokinetics of rucaparib (LC-MS/MS, noncompartmental)
# assaySetup: human, plasma, iv, 18 mg, AUC0-24, single i.v. dose 18 mg, day –10; geometric mean (CV%)
measuredAttribute: AUC(0-t) (ng·h/mL)
Give bare numbers, in ng·h/mL.

Query block: Could you share which AUC(0-t) value was measured for CNCc1ccc(-c2[nH]c3cc(F)cc4c3c2CCNC4=O)cc1 ?
Result block: 812

* * *

# testName: Plasma pharmacokinetics of rucaparib (LC-MS/MS, noncompartmental)
# assaySetup: human, plasma, po, 120 mg, tmax, single oral dose 120 mg, day 1; median (minimum, maximum)
measuredAttribute: Tmax (h)
Answers are plain numbers, in h.

Query block: Sample CNCc1ccc(-c2[nH]c3cc(F)cc4c3c2CCNC4=O)cc1 [rucaparib] — what was its Tmax?
Result block: 4

* * *

# testName: Plasma pharmacokinetics of rucaparib (LC-MS/MS, noncompartmental)
# assaySetup: human, plasma, po, 120 mg, Cmax, single oral dose 120 mg, day –5; geometric mean (CV%)
measuredAttribute: Cmax (ng/mL)
Answers are plain numbers, in ng/mL.

Query block: # query: Cmax of entry CNCc1ccc(-c2[nH]c3cc(F)cc4c3c2CCNC4=O)cc1 [rucaparib]
Result block: 274

* * *

# testName: Plasma pharmacokinetics of rucaparib (LC-MS/MS, noncompartmental)
# assaySetup: human, plasma, po, 240 mg, Cmax, single oral dose 240 mg, day 1; geometric mean (CV%)
measuredAttribute: Cmax (µg/mL)
Answers are plain numbers, in µg/mL.

Query block: Please give the measured Cmax for this molecule: CNCc1ccc(-c2[nH]c3cc(F)cc4c3c2CCNC4=O)cc1
Result block: 0.493

* * *

# testName: Plasma pharmacokinetics of rucaparib (LC-MS/MS, noncompartmental)
# assaySetup: human, plasma, iv, 40 mg, Cmax, single i.v. dose 40 mg, day –10; geometric mean (CV%)
measuredAttribute: Cmax

Query block: I'd like to know its Cmax. The compound in question is CNCc1ccc(-c2[nH]c3cc(F)cc4c3c2CCNC4=O)cc1 [rucaparib]
Result block: 1610 ng/mL

* * *

# testName: clinical
# assaySetup: human, in vivo, t1/2
measuredAttribute: half-life

Query block: Which half-life is listed for CNCc1ccc(-c2[nH]c3cc(F)cc4c3c2CCNC4=O)cc1 [rucaparib] ?
Result block: ~17 h

* * *

# testName: Plasma pharmacokinetics of rucaparib (LC-MS/MS, noncompartmental)
# assaySetup: human, plasma, po, 72 mg, Cmax, single oral dose 72 mg, day –5; geometric mean (CV%)
measuredAttribute: Cmax

Query block: Which Cmax reading was recorded for the compound CNCc1ccc(-c2[nH]c3cc(F)cc4c3c2CCNC4=O)cc1 [rucaparib] ?
Result block: 108 ng/mL

* * *

# testName: Plasma pharmacokinetics of rucaparib (LC-MS/MS, noncompartmental)
# assaySetup: human, plasma, po, 72 mg, AUCinf, single oral dose 72 mg, day –5; geometric mean (CV%)
measuredAttribute: AUC(0-inf)

Query block: Requested field: AUC(0-inf). Item: CNCc1ccc(-c2[nH]c3cc(F)cc4c3c2CCNC4=O)cc1
Result block: 1.09 µg·h/mL
